Test system: L6
Method Description: Cytotoxicity against rat L6 cells
Assay type: cell-based
Square brackets hold non-standard residues; d marks the D form. Peptide text beside a SMILES is read from it. * marks the point of attachment. NMeF = CN[C@@H](Cc1ccccc1)C(=O)O; NMeL = CN[C@@H](CC(C)C)C(=O)O; NHPhenethyl = c1ccc(CCN*)cc1
Experimental Readout: pIC50
One number for each entry, as −log10 of the molar value.

CN[C@H](C(=O)N(C)[C@@H](Cc1ccccc1)C(=O)NCCc1c[nH]c2ccccc12)C(C)C: 4.07

# map each molecule to its pIC50
1. CN[C@@H](CC(C)C)C(=O)N(C)[C@@H](Cc1ccccc1)C(=O)NCCc1ccccc1 [XENORTIDE A] (H-[NMeL]-[NMeF]-NHPhenethyl)
2. CN[C@@H](CC(C)C)C(=O)N(C)[C@@H](Cc1ccccc1)C(=O)NCCc1c[nH]c2ccccc12 [XENORTIDE B]

Out:
[3.94, 4.86]
